Assay: Liver microsome metabolic stability (LMS) assay, mouse
Conditions: mouse liver microsome 0.5 mg protein/mL, 1 μM, NADPH
MEASURED_ENDPOINT: T1/2 of LMS, M

# count of solved cases: 2
CN(C(=O)c1cc2c(cn1)nc(N)c1cncn12)C1COc2cc(C(F)(F)F)ccc21 (stereo not shown) [Compound 21]
1.82 h
CN(C(=O)c1cc2c(cn1)nc(N)c1cncn12)[C@@H]1CC(F)(F)c2cc(C(F)(F)F)ccc21 [Compound 26]
1.98 h

May I ask what T1/2 of LMS, M has been recorded for CN(C(=O)c1cc2c(cn1)nc(N)c1cncn12)C1COc2cc(C(F)(F)F)ccc21 (stereo not shown) [Compound 19] ?
2 h

Need T1/2 of LMS, M, item CN(C(=O)c1cc2c(cn1)nc(N)c1cncn12)C1CC(F)(F)c2cc(C(F)(F)F)ccc21 (stereo not shown) [Compound 24]
>2.42 h
